TARGET_ENTITY: α-glucosidase from baker's yeast (Saccharomyces cerevisiae, UniProt P53341)
Construct: purchased Sigma-Aldrich
Sequence (P53341 whole entry): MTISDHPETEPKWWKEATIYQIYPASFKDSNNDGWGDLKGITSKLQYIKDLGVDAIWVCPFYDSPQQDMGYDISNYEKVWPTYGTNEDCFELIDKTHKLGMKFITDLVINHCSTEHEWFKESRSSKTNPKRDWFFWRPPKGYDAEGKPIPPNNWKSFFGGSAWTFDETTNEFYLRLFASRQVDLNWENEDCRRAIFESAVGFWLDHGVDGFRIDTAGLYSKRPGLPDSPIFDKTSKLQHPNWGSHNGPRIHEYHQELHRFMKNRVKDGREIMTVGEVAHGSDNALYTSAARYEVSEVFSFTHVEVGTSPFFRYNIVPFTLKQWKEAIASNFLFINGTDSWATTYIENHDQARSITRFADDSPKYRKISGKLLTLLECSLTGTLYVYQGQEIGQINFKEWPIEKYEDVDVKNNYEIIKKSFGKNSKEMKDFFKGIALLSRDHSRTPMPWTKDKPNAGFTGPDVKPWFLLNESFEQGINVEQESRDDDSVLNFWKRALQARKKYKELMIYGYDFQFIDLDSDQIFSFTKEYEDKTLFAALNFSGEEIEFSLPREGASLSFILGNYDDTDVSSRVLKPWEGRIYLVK
ASSAY_PROTOCOL: biochemical
CONDITION_PARAMETERS: α-Glucosidase IC50, 37 °C, 15 min, pH 7.0; average ± SD, triplicate
Record form. Attribute: pIC50. Fill in for each entry.
Give bare numbers, as −log10 of the molar value.

* Oc1cc(O)c2c(c1)O[C@H](c1ccc(O)c(O)c1)[C@H](O)[C@H]2c1c(O)cc(O)c2c1O[C@H](c1ccc(O)c(O)c1)[C@H](O)[C@H]2c1c(O)cc(O)c2c1O[C@H](c1ccc(O)c(O)c1)[C@H](O)C2 [Compound 7, epi-(4β→8)-epi-(4β→8)-epi (C1)] | 5.36

Respond only with pIC50 recorded for Oc1cc(O)c2c(c1)O[C@H](c1ccc(O)c(O)c1)[C@H](O)[C@H]2c1c(O)cc(O)c2c1O[C@H](c1ccc(O)c(O)c1)[C@H](O)C2 [Compound 5, procyanidin B2]
5.09

---

TARGET_ENTITY: α-glucosidase from baker's yeast (Saccharomyces cerevisiae)
Construct: purchased Sigma-Aldrich
ASSAY_PROTOCOL: biochemical
CONDITION_PARAMETERS: 37 °C, 15 min, pH 7.0; average ± SD, triplicate; read-out: α-Glucosidase IC50 (converted)
Record form. Attribute: IC50. Fill in for each entry.

Completed entries (count: 4):
- Oc1cc(O)c2cc(OC3OCC(O)C(O)C3O)c(-c3ccc(O)c(O)c3)[o+]c2c1 (centres unmarked) [Compound 4, cyanidin 3-xyloside]: 13.1 µM
- Oc1cc(O)c2cc(OC3OCC(O)C(O)C3O)c(-c3ccc(O)c(O)c3)[o+]c2c1 (centres unmarked) [Compound 3, cyanidin 3-arabinoside]: 0.882 µM
- Oc1cc(O)c2c(c1)O[C@H](c1ccc(O)c(O)c1)[C@H](O)[C@H]2c1c(O)cc2c(c1O)C[C@@H](O)[C@@H](c1ccc(O)c(O)c1)O2 [Compound 6, epi-(4β→6)-epi (B5)]: 9.51 µM
- OCC1OC(Oc2cc3c(O)cc(O)cc3[o+]c2-c2ccc(O)c(O)c2)C(O)C(O)C1O (centres unmarked) [Compound 1, cyanidin 3-galactoside]: 3.43 µM

Respond only with IC50 recorded for OCC1OC(Oc2cc3c(O)cc(O)cc3[o+]c2-c2ccc(O)c(O)c2)C(O)C(O)C1O (centres unmarked) [Compound 2, cyanidin 3-glucoside]
1.94 µM

---

TARGET_ENTITY: 15-LO from soybeans (Glycine max, UniProt P08170)
Construct: purchased Sigma-Aldrich
Sequence (P08170 whole entry): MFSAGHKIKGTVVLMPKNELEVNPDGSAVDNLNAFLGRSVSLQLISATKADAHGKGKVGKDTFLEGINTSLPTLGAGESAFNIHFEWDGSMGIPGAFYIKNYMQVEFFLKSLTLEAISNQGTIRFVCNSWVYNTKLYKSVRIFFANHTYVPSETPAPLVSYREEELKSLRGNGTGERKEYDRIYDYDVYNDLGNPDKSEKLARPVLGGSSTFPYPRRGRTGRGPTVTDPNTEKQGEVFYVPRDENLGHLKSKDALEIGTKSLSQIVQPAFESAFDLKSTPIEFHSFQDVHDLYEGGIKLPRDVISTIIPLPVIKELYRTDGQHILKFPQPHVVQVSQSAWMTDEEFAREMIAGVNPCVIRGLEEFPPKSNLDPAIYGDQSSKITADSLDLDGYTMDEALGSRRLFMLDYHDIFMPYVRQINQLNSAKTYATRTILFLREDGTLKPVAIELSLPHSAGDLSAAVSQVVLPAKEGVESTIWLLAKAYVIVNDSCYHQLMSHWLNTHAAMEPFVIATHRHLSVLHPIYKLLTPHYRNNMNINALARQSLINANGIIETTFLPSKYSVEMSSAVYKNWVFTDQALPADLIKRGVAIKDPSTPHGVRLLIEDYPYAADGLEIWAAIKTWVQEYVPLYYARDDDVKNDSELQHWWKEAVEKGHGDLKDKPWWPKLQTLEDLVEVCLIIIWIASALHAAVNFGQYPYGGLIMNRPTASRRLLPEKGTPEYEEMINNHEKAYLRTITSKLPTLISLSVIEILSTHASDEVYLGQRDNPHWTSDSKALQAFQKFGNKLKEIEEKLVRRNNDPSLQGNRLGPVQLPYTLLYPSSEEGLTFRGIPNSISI
ASSAY_PROTOCOL: Inhibition of 15-lipoxygenase (15-LO)
Type: biochemical, soybean
CONDITION_PARAMETERS: linoleic acid 134 µM, borate buffer pH 9.00; average ± SD, triplicate; read-out: 15-Lipoxygenase IC50 (converted)
Record form. Attribute: IC50. Fill in for each entry.
One number for each entry, in µM.

Completed entries (count: 3):
* Oc1cc(O)c2cc(OC3OCC(O)C(O)C3O)c(-c3ccc(O)c(O)c3)[o+]c2c1 (stereo not drawn) [Compound 3, cyanidin 3-arabinoside] | 140
* Oc1cc(O)c2c(c1)O[C@H](c1ccc(O)c(O)c1)[C@H](O)[C@H]2c1c(O)cc2c(c1O)C[C@@H](O)[C@@H](c1ccc(O)c(O)c1)O2 [Compound 6, epi-(4β→6)-epi (B5)] | 125
* OCC1OC(Oc2cc3c(O)cc(O)cc3[o+]c2-c2ccc(O)c(O)c2)C(O)C(O)C1O (stereo not drawn) [Compound 2, cyanidin 3-glucoside] | 163

Please give IC50, item by item, for the list that follows.
1. Oc1cc(O)c2c(c1)O[C@H](c1ccc(O)c(O)c1)[C@H](O)[C@H]2c1c(O)cc(O)c2c1O[C@H](c1ccc(O)c(O)c1)[C@H](O)[C@H]2c1c(O)cc(O)c2c1O[C@H](c1ccc(O)c(O)c1)[C@H](O)C2 [Compound 7, epi-(4β→8)-epi-(4β→8)-epi (C1)]
2. OCC1OC(Oc2cc3c(O)cc(O)cc3[o+]c2-c2ccc(O)c(O)c2)C(O)C(O)C1O (stereo not drawn) [Compound 1, cyanidin 3-galactoside]

[66.5, 159]
